Where do the numbers come from? From the Human Domainome abundance scans (Beltran et al. 2025).

B1: Retinoic acid receptor beta, residues 85 to 161; numbered along this chain, P10826 (parent)
chain: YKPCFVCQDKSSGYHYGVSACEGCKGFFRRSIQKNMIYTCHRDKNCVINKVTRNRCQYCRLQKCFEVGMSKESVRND

Variants of: B1
protocol-text: abundance fitness (aPCA) (normalised: wild type 0, dead -1); higher = more abundant; growth selection in yeast, the domain comes from the species named
measurement-context: Homo sapiens
Outcome label depends on abundance fitness relative to 0.05: at/above gives YES, below gives NO.

>  <mutation-string>
K2E

>  <label>
NO

$$$$
>  <mutation-string>
P3E

>  <label>
YES

$$$$
>  <mutation-string>
R53D

>  <label>
NO

$$$$
>  <mutation-string>
A20W

>  <label>
NO

$$$$
>  <mutation-string>
F5P

>  <label>
YES

$$$$

Kindly determine if abundance fitness recorded for `N49D` is above or exactly 0.05.
YES

Kindly determine if abundance fitness recorded for `Q33I` is above or exactly 0.05.
NO

Kindly determine if abundance fitness recorded for `C59Y` is above or exactly 0.05.
NO

Kindly determine if abundance fitness recorded for `M36C` is above or exactly 0.05.
YES

Kindly determine if abundance fitness recorded for `C24N` is above or exactly 0.05.
NO
